The values you see were collected from ChEMBL document CHEMBL1671828.

Entries with their measured Ki, system Transporter (Rattus norvegicus):
Give bare numbers, in µM.

{"compound": "CN(C)CC[S+]([O-])C(c1ccc(Cl)cc1)c1ccc(Cl)cc1 (racemic)", "Ki [µM]": 36.2}
{"compound": "CN(C)C(=O)CSC(c1ccc(Br)cc1)c1ccc(Br)cc1", "Ki [µM]": 19.2}
{"compound": "CN(C)C(=O)CSC(c1ccc(Cl)cc1)c1ccc(Cl)cc1", "Ki [µM]": 42.5}

# next compound below
// query Ki value for entry NC(=O)CSC(c1ccc(Br)cc1)c1ccc(Br)cc1
77.7

###

- targetUnderTest: Transporter (Rattus norvegicus)
- Sequence (Q63380 whole entry): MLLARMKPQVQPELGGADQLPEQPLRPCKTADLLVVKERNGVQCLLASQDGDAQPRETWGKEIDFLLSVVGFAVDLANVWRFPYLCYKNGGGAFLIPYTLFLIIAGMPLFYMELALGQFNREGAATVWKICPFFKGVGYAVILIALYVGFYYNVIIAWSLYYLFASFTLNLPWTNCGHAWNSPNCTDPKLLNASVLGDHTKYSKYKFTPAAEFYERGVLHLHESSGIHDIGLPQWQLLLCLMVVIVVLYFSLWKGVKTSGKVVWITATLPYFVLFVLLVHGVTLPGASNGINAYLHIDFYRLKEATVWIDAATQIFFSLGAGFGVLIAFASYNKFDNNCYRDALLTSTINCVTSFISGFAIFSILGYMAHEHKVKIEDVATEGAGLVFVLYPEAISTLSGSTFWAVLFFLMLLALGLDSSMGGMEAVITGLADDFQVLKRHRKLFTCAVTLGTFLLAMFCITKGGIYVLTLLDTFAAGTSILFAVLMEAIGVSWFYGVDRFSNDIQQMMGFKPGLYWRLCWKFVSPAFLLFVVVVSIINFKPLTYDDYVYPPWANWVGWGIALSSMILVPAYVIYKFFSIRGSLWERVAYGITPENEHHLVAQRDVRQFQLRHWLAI
- protocolNotes: Displacement of [3H]nisoxetine from NET in Sprague-Dawley rat brain membranes at 10 uM
- Format: cell membranes
- appliedConditions: Membrane
Calls of active or inactive are those of the source. The rule behind the calls is not given here.
attributeMeasured: inhibition

{"molecule": "NC(=O)C[S@@+]([O-])C(c1ccccc1)c1ccccc1", "attributeMeasured": "inhibition", "assayValue": "inactive"}
{"molecule": "CN(C)C(=O)C[S+]([O-])C(c1ccc(F)cc1)c1ccc(F)cc1 (racemic)", "attributeMeasured": "inhibition", "assayValue": "inactive"}
{"molecule": "NC(=O)C[S@+]([O-])C(c1ccccc1)c1ccccc1", "attributeMeasured": "inhibition", "assayValue": "inactive"}
{"molecule": "CN(C)C(=O)C[S+]([O-])C(c1ccc(Cl)cc1)c1ccc(Cl)cc1 (racemic)", "attributeMeasured": "inhibition", "assayValue": "inactive"}

# next molecule below
So what does the record say about inhibition for NC(=O)C[S+]([O-])C(c1ccc(Cl)cc1)c1ccc(Cl)cc1 (racemic) ?
inactive
